Measured Inhibition accompanies every entry in the list below.
Test system: Candida albicans
Settings: 20 µM
Description: Antifungal activity against Candida albicans ATCC 90028 (CO-ADD:FG_001); MIC in YNB media using NBS plates, by OD630
Measured potencies and affinities stand elsewhere.
outcome-measure: Inhibition (%)

CC(=O)OC1COC(OC(C)=O)CO1 (stereo not given)
-0.61
CCCCCCC(C)OC(=O)c1ccccc1C(=O)O (stereo not given)
18.6
CC1=CC(=O)C(/C(C)=N/c2ccccc2Cl)C(=O)O1 (stereo not given)
20.8
CCOC(=O)C(=O)Cc1nc2ccccc2s1
16
Oc1ccccc1-c1nnco1 [FENADIAZOLE]
0.92
CCCn1cnc2c(Sc3c([N+](=O)[O-])ncn3C)nc(N)nc21
1.1
Nc1cc([N+](=O)[O-])ccc1N1C(=O)CCCC1=O
7.24
CC(=O)O[C@H]1CC[C@@]2(C)[C@@H](CC[C@@H]3[C@@H]2CC(=O)[C@@]2(C)[C@H]3C[C@@H]3CC(C)=CC(=O)[C@@H]32)C1
2.5
COc1ccc(Nc2cc(Cl)ccc2C(=O)O)cn1
22.9
COc1cc(/C=C2\CCOC2=O)cc(OC)c1OC
2.88
CSc1nc(O)cc(Cl)n1
2.04
Nc1nc(N)nc(C2C=CCCC2)n1 (stereo not given)
0.09
Clc1ccccc1-c1nc(-c2ccncc2)no1 [PIFEXOLE]
12.7
Cc1nc(N)nc(Cl)c1CCC1OCCO1
2.66
Cn1ncc2c(Nc3ccccc3Cl)nc(Nc3ccccc3Cl)nc21
8.17
CCCCCn1cnc2c(S)nc(N)nc21
1.29
CCOC(=O)c1[nH]c(C(=O)O)c(OC(=O)CC)c1C
11.4
O=C(CN1CCCC1)Nc1nc(-c2ccc(Cl)cc2)cs1
4.21
Cn1ncc2c(Nc3ccc([N+](=O)[O-])cc3)nc(Cl)nc21
-1.97
c1ccc2[nH]c(CCCCCc3nc4ccccc4[nH]3)nc2c1
4.8
O=C1OCC/C1=C\OCCCO/C=C1\CCOC1=O
-0.38
CC(OC(=O)Nc1cccc(Cl)c1)C(=O)O (stereo not given)
-1.51
O=[N+]([O-])c1cccc(/C=C/c2ccccn2)c1
0.08
CCC1=[N+]([O-])[N+]([O-])=C(c2ccccc2)/C1=N/O
7.14
CCOC(=O)Cc1cc(O)c2cc(C)ccc2n1
-1.04
